Listing: 3' UTR reporter interaction score of selected sequences
- System: FBXW7
- test_name: 3' UTR reporter interaction score (median-centred robust z-score of log2 firefly/Renilla activity); higher = less repression of the 3' UTR reporter
- measurement_parameters: HEK293T; 48 h
experimental_readout: 3' UTR reporter interaction score

ordered_residues=UGGAGAGAAAGGCAGUUC reported_value=-1.52
ordered_residues=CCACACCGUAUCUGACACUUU reported_value=0.287
ordered_residues=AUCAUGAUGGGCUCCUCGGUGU reported_value=-2.53
ordered_residues=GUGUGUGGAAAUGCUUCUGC reported_value=-0.236
ordered_residues=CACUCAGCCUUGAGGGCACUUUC reported_value=-1.64
ordered_residues=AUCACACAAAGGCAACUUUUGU reported_value=-0.0452
ordered_residues=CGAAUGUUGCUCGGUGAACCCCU reported_value=0.304
ordered_residues=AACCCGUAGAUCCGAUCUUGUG reported_value=-0.496
ordered_residues=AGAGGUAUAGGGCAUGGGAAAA reported_value=-0.74
ordered_residues=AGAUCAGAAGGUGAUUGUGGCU reported_value=1.15
